Reported binding signal values for a set of binders
# EXPERIMENTAL SYSTEM: T1, TGFβ2 (transforming growth factor beta 2) (Homo sapiens, UniProt P61812 SEQ:1-112)
# T1 sequence: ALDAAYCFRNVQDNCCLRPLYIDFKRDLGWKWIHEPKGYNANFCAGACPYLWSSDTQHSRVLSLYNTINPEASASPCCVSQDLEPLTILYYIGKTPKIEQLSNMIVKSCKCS
# ASSAY COMMENT: filter
# CONDITION DESCRIPTION: chain copies: 2 (inferred, homodimer)

Sample records with binding signal:
GGGGUUAUUCAGAGUCUGUAUAGCUGACCC (ssRNA, 2'-F C and U) [21a-21(ML-136)]    10000 x Kd of NX22284
GGAGGUUAUUACAGAGUCUGUAUAGCUGUACUCCCC (ssRNA, 2'-F C and U; 3'-3' dT cap) [NX22283]    0.6 x Kd of NX22284
GGAGGUUAUUACAGAGUCUGUAUAGCUGUACUCCCC (ssRNA, 2'-F C and U) [21a-21(ML-94)]    0.5 x Kd of NX22284
GGAGGUUAUUACAGAGUCUGUAUAGC (ssRNA, 2'-F C and U) [21a-21(ML-97)]    1000 x Kd of NX22284

Proceeding to the next binder to report its binding signal.
Please give measured binding signal of the following entry: AGGUUAUUACAGAGUCUGUAUAGCUGUACUCC (ssRNA, 2'-F C and U; 3'-3' dT cap) [NX22302]
100 x Kd of NX22284
